measured.on: NS3-NS4A protein D168V (Hepatitis C virus genotype 1b, UniProt Q9WMX2, D1194V)
Construct: TEV protease cleavage site (N); made in house; host or cells: E. coli (pET11a)
Sequence (Q9WMX2 1027-1657 D1194V): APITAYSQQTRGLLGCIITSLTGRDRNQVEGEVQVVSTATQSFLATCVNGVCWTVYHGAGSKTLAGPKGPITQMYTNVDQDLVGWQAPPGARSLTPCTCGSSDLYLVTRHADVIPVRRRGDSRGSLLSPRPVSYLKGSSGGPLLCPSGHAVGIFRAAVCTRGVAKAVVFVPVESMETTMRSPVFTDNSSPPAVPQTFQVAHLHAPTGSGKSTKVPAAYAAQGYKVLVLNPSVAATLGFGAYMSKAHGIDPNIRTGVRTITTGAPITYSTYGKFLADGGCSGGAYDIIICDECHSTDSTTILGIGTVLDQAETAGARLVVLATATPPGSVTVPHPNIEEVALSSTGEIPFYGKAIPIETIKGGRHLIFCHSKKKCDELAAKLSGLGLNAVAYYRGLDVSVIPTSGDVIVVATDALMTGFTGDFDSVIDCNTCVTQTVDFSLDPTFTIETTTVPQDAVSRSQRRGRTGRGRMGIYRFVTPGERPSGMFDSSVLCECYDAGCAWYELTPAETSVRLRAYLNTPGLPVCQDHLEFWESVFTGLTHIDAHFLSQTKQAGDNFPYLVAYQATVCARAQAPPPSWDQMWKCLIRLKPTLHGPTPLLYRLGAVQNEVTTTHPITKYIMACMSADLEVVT
Sequence (Q9WMX2 1658-1711 partner limits assumed): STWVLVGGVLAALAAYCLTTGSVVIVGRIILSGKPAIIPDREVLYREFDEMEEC
test.description: In vitro enzyme assay, Ki, full length NS3/NS4A protein D168V
Assay type: biochemical, HCV genotype 1b
experimental.context: calculated Ki from IC50, read-out: Ki, D168V (calculated Ki from IC50)
reported.endpoint: Ki (nM)

[
  {
    "compound.structure.string": "COc1ccc2c(O[C@@H]3C[C@H]4C(=O)N[C@]5(C(=O)O)C[C@H]5/C=C\\CCCCC[C@H](NC(=O)OC5CCCC5)C(=O)N4C3)cc(-c3csc(NC(C)C)n3)nc2c1",
    "value.measured": 520
  }
]
